Data origin: patent US20200071424A1

# Experimental target: T1, human [1-305]-mouse chimeric EL (human; mouse, UniProt Q9WVG5 306-500)
# T1 construct: Heparin extract, captured or detected by an anti-C2-tag antibody; also called human-mouse chimeric EL
# T1 sequence: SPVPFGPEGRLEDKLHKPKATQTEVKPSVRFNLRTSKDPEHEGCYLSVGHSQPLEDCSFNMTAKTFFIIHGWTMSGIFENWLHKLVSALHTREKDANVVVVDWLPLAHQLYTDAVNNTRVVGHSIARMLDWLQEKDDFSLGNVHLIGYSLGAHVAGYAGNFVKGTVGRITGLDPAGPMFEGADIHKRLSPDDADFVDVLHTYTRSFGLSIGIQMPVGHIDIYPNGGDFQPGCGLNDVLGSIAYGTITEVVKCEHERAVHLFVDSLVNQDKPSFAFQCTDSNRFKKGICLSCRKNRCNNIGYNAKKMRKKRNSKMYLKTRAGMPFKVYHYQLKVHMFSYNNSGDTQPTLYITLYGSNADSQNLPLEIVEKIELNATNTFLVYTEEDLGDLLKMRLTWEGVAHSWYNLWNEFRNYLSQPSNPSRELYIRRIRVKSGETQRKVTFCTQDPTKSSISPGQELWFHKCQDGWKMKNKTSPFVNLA
# Measurement description: Biacore; EL captured by anti-C2-tag Ab; bivalent fit
Observed property: Kd (nM)

1. h55A1-S1 (antibody, V domains shown, humanized) VH: QVQLVQSGSELKKPGASVKVSCKASGYTFTNYGMNWVRQAPGQGLEWMGWINTYSGVPTYAGDFKGRFVFSLDTSVSTAYLQISSLKAEDTAVYYCARRGYYGRRYFDVWGKGTTVTVSS VL: DIVLTQSPASLAVSPGQRATITCKASQSVDYDVDSYMHWYQQKPGQPPKLLIYAASNLASGVPARFSGSGSGTDFTLTINPVEANDTANYYCQQTIEDPPTFGGGTKVEIK ... 31
2. h55A1-F6 (antibody, V domains shown, humanized) VH: QVQLVQSGAEVKKPGASVKVSCKASGYTFTNYGMNWVRQAPGQGLEWMGWINTYSGVPTYAGDFKGRFTFTLDTSTSTAYMELSSLRSEDTAVYYCARRGYYGRRYFDVWGKGTTVTVSS VL: EIVMTQSPATLSVSPGERATLSCKASQSVDYDVDSYMHWYQQKPGQAPRLLIYAASNLASGIPARFSGSGSGTEFTLTISSLQSEDFAVYYCQQTIEDPPTFGGGTKVEIK ... 0.3
3. h16B3-S6 (antibody, V domains shown, humanized) VH: EVQLVESGGGLVQPGGSLRLSCAASGFTFSGYTMSWVRQAPGKGLEWVSEISFARDRAFYPDTVKGRFTISRDNSKNTLYLQMNSLRAEDTAVYYCARLGGKNRDFWYFDLWGQGTTVTVSS VL: DIVMTQSPDSLAVSLGERATINCRASESVEYYGTSLMQWYQQKPGQPPKLLIYAASNVESGVPDRFSGSGSGTDFTLTISSLQAEDVAVYYCQQSWRVPFTFGQGTKLEIK ... 1
4. h55A1-S2 (antibody, V domains shown, humanized) VH: QVQLVQSGSELKKPGASVKVSCKASGYTFTNYGLNWVRQAPGQGLEWMGWINTYSGVPTYAGDFKGRFVFSLDTSVSTAYLQISSLKAEDTAVYYCARRGYYGRRFFDVWGKGTTVTVSS VL: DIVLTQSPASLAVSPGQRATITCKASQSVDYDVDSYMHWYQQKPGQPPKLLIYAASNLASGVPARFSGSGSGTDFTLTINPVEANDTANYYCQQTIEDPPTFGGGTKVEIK ... 11
